targetDesc: T1, human IL-18 binding protein (IL-18BP) (human, UniProt O95998 31-194)
T1 sequence (looked up): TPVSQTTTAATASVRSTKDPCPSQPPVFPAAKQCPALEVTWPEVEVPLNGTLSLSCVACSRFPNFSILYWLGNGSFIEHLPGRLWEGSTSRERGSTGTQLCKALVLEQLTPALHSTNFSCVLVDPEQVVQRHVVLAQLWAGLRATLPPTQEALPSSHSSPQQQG
procedureSummary: cell-based or functional assay
recordedMetric: Fold Change (BP/NO BP), 50 nM BP (fold)

* IL-18 variant M60K (ligand) YFGKLESKLSVIRNLNDQVLFIDQGNRPLFEDMTDSDMRDNAPRTIFIISMYKDSQPRGKAVTISVKSEKISTLSSENKIISFKEMNPPDNIKDTKSDIIFFQRSVPGHDNKMQFESSSYEGYFLASEKERDLFKLILKKEDELGDRSIMFTVQNED | 1.64
* IL-18 variant G3T, M60K (ligand) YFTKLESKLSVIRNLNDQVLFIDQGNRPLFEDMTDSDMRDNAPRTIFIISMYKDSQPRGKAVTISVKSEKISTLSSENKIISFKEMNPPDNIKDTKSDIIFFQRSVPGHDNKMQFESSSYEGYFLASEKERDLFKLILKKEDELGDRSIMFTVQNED | 0.99
* IL-18 variant G3V, M60K, D157E (ligand) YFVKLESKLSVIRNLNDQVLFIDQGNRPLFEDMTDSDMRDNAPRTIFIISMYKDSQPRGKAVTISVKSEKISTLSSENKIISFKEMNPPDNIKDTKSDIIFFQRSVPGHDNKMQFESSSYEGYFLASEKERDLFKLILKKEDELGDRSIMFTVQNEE | 1.74
* Comparator 1 (human IL-18 variant M51K, K53S, Q56L, P57A, M60L, S105D, D110S, N111R) (ligand) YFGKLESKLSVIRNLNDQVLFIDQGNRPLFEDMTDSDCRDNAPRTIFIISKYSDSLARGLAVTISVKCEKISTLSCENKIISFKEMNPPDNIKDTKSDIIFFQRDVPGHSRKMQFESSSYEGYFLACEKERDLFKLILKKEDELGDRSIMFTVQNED | 2.5
